Values were extracted from patent US8461152B2.

This section presents compounds with their documented Ki values.
Target: human V1a receptor (Homo sapiens, UniProt P37288)
Construct: expressed in transfected cells; host or cells: HEK293 cells, transiently transfected; membrane preparation
Sequence (P37288 whole entry): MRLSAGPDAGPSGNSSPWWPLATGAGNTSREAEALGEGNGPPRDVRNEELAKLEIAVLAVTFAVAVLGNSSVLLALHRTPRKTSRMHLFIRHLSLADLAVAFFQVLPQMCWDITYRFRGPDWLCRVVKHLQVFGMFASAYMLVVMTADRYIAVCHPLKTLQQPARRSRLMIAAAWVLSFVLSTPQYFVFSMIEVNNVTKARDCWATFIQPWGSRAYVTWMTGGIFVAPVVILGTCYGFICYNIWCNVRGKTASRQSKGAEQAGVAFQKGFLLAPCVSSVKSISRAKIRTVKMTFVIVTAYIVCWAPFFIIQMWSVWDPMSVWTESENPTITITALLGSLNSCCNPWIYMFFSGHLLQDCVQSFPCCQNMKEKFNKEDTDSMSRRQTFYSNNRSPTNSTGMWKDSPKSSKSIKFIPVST
Test: human V1a receptor binding studies (SPA, 3H-Vasopressin, membranes of transfected HEK293 cells)
Conditions: displacement of 3H-Vasopressin, HEK293 cell membranes, 1 h at room temperature; Ki by Cheng-Prussoff equation; read-out: pKi (hV1a) (converted)
Structures can show the parent of a compound that is named as a salt.
Outcome measure: Ki (nM)

{"Compound": "CC(C)(C)OC(=O)N1Cc2cc(Cl)ccc2-n2c(nnc2[C@H]2CC[C@H](Oc3cccc(Cl)c3)CC2)C1 [Example 26]", "Outcome measure": "Ki", "Observed measurement": 4.17}
{"Compound": "CN1Cc2cc(Cl)ccc2-n2c(nnc2[C@H]2CC[C@H](Oc3cncc(Cl)c3)CC2)C1 [Example 66]", "Outcome measure": "Ki", "Observed measurement": 9.12}
{"Compound": "Fc1cccnc1O[C@H]1CC[C@H](c2nnc3n2-c2ccc(Cl)cc2CNC3)CC1 [Example 98]", "Outcome measure": "Ki", "Observed measurement": 3.02}
{"Compound": "Clc1ccc2c(c1)CNCc1nnc([C@H]3CC[C@H](Oc4ccccc4)CC3)n1-2 [Example 2, hydrochloride]", "Outcome measure": "Ki", "Observed measurement": 4.37}
{"Compound": "Cc1cccc(O[C@H]2CC[C@H](c3nnc4n3-c3ccc(Cl)cc3CN(C)C4)CC2)c1 [Example 37]", "Outcome measure": "Ki", "Observed measurement": 1.7}
{"Compound": "COc1cccc(O[C@H]2CC[C@H](c3nnc4n3-c3ccc(Cl)cc3CNC4)CC2)c1 [Example 30, hydrochloride]", "Outcome measure": "Ki", "Observed measurement": 3.31}
{"Compound": "CN1Cc2cc(Cl)ccc2-n2c(nnc2[C@H]2CC[C@H](Oc3ccc(C#N)cc3)CC2)C1 [Example 22]", "Outcome measure": "Ki", "Observed measurement": 8.91}
